assay: Drug level in rat after 6 hrs; assay type: ADME, organism-based; conditions: in vivo, read-out: Drug uptake
experimentalReadout: concentration at 6 h (nM)
Give the number; nM is assumed, so skip it.

Consider the compound CC1(C)CCC(N2CCC3(CC2)C(=O)NCN3c2ccccc2)c2cc(Cl)c(Cl)cc21 (stereo unspecified) and give its recorded concentration at 6 h.
467

====

test: AUC (0 to 6 hrs) in rat; assay type: ADME, organism-based; set-up: time < 6 hr; settings: plasma
experimentalReadout: AUC(0-t) at 6 h (µM·h)
Give the number; µM·h is assumed, so skip it.

Consider the compound CC1(C)CCC(N2CCC3(CC2)C(=O)NCN3c2ccccc2)c2cc(Cl)c(Cl)cc21 (stereo unspecified) and give its recorded AUC(0-t) at 6 h.
2.11
